# Tested on: 817829-284-R-J1-PDC complex spheroids, viability
# assay text: Anticancer human tumor 817829-284-R-J1-PDC patient-derived colon adenocarcinoma cell line growth inhibition [GQUAD]
# experimental parameters: second compound 1 µM; first compound 3.16 µM; stronger effect = lower value
recorded endpoint: viability, T/C

| compound | viability, T/C |
| --- | --- |
| COc1ccc([C@@H](O)c2cc(-c3ncnc4cc(N5CCOCC5)ccc34)c(F)cc2Cl)nn1 + Cc1[nH]c2ccc(F)cc2c1-c1nc2c3cccnc3c3ncccc3c2[nH]1 | 72.6% |
| CCCS(=O)(=O)Nc1ccc(F)c(C(=O)c2c[nH]c3ncc(-c4ccc(Cl)cc4)cc23)c1F + Cc1[nH]c2ccc(F)cc2c1-c1nc2c3cccnc3c3ncccc3c2[nH]1 | 80.8% |
| COc1ncnc(C2CC2)c1-c1ncc2cnn(Cc3ccc(-c4nc(C(F)(F)F)cn4C(C)C)cc3)c2n1 + Cc1[nH]c2ccc(F)cc2c1-c1nc2c3cccnc3c3ncccc3c2[nH]1 | 108% |
| CC1COCCN1c1cc(C2(S(C)(=N)=O)CC2)nc(-c2ccnc3[nH]ccc23)n1 (stereo not given) + Cc1cnc(CNC(=O)c2c(=O)c3ccc(N4CCCN(C)CC4)nc3n3c2sc2ccccc23)cn1 | 10.8% |
| CC1COCCN1c1cc(C2(O)CC3CCC(C2)O3)c2cnn(-c3ccn[nH]3)c2n1 (stereo not given) + Cc1[nH]c2ccc(F)cc2c1-c1nc2c3cccnc3c3ncccc3c2[nH]1 | 4.91% |

Report viability, T/C for every entry below.
1. CC1COCCN1c1cc(-c2ccnn2C)c2ccnc(-c3ccn[nH]3)c2n1 (stereo not given) + Cc1cnc(CNC(=O)c2c(=O)c3ccc(N4CCCN(C)CC4)nc3n3c2sc2ccccc23)cn1
2. CC(C)n1c(=O)n(C)c2cnc3cc(F)c(-c4ccc(OCCCN5CCCCC5)nc4)cc3c21 + Cc1[nH]c2ccc(F)cc2c1-c1nc2c3cccnc3c3ncccc3c2[nH]1

A:
1. 5.53%
2. 115%

###

# Tested on: 817829-284-R-J1-PDC complex spheroids, viability
# assay text: Anticancer human tumor 817829-284-R-J1-PDC cell line growth inhibition [GQUAD];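 further: spheroids exposed to agents for 7 days before readout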
# experimental parameters: curve of first compound; second compound 1 µM
I'd appreciate it if you could supply IC50 values for the items below.

Take a look at these entries with their results.
| molecule | subject of test | IC50 |
| --- | --- | --- |
| CC1COCCN1c1cc(-c2ccnn2C)c2ccnc(-c3ccn[nH]3)c2n1 (stereo not drawn) + Cc1cnc(CNC(=O)c2c(=O)c3ccc(N4CCCN(C)CC4)nc3n3c2sc2ccccc23)cn1 | 817829-284-R-J1-PDC complex spheroids, viability | < 0.0316 µM |
| CC(C)n1c(=O)n(C)c2cnc3cc(F)c(-c4ccc(OCCCN5CCCCC5)nc4)cc3c21 + CN(C)c1ccc(Nc2c3ccc(NC(=O)CCN4CCCC4)cc3nc3cc(NC(=O)CCN4CCCC4)ccc23)cc1 | 817829-284-R-J1-PDC complex spheroids, viability | > 10 µM |

The molecule listed as CCCS(=O)(=O)Nc1ccc(F)c(C(=O)c2c[nH]c3ncc(-c4ccc(Cl)cc4)cc23)c1F + Cc1cnc(CNC(=O)c2c(=O)c3ccc(N4CCCN(C)CC4)nc3n3c2sc2ccccc23)cn1 shows IC50 equal to < 0.0316 µM

###

I'd appreciate it if you could supply viability, T/C values for the items below.
# System: 817829-284-R-J1-PDC complex spheroids, viability
# assay text: Anticancer human tumor 817829-284-R-J1-PDC cell line growth inhibition [GQUAD];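 further: spheroids exposed to agents for 7 days before readout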;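 on viability, T/C: percent viability relative to DMSO vehicle control taken as 100%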
# experimental parameters: second compound 0.1 µM; first compound 0.1 µM; stronger effect = lower value
# Text: DNA G-quadruplex Stabilizer Agents in Combinations in Complex Spheroids A high-throughput screen of multi-cell type tumor spheroids was designed to identify active combinations of DNA G-quadruplex stabilizer agents and targeted small molecules. […] Compounds. […] If the clinical Cmax for an agent had not been determined, the highest concentration tested was 10 microM. […]
Numbers only, in %.

| compound | subject of test | recorded endpoint | measured value |
| --- | --- | --- | --- |
| CC(C)n1c(=O)n(C)c2cnc3cc(F)c(-c4ccc(OCCCN5CCCCC5)nc4)cc3c21 + CN(C)c1ccc(Nc2c3ccc(NC(=O)CCN4CCCC4)cc3nc3cc(NC(=O)CCN4CCCC4)ccc23)cc1 | 817829-284-R-J1-PDC complex spheroids, viability | viability, T/C | 107 |
| COc1ncnc(C2CC2)c1-c1ncc2cnn(Cc3ccc(-c4nc(C(F)(F)F)cn4C(C)C)cc3)c2n1 + Cc1[nH]c2ccc(F)cc2c1-c1nc2c3cccnc3c3ncccc3c2[nH]1 | 817829-284-R-J1-PDC complex spheroids, viability | viability, T/C | 115 |

Report viability, T/C for every entry below.
1. CC1COCCN1c1cc(-c2ccnn2C)c2ccnc(-c3ccn[nH]3)c2n1 (stereo not drawn) + Cc1[nH]c2ccc(F)cc2c1-c1nc2c3cccnc3c3ncccc3c2[nH]1
2. C=CCn1c(=O)c2cnc(Nc3ccc(N4CCN(C)CC4)cc3)nc2n1-c1cccc(C(C)(C)O)n1 + Cc1[nH]c2ccc(F)cc2c1-c1nc2c3cccnc3c3ncccc3c2[nH]1
3. O=C(NO)c1cnc(N2CCN(S(=O)(=O)c3ccc4ccccc4c3)CC2)nc1 + Cc1cnc(CNC(=O)c2c(=O)c3ccc(N4CCCN(C)CC4)nc3n3c2sc2ccccc23)cn1
4. COc1cc(C2c3cc4c(cc3C(OC3OC5COC(C)OC5C(O)C3O)C3COC(=O)C23)OCO4)cc(OC)c1O (stereo not drawn) + Cc1cnc(CNC(=O)c2c(=O)c3ccc(N4CCCN(C)CC4)nc3n3c2sc2ccccc23)cn1
5. O=C(NO)c1cnc(N2CCN(S(=O)(=O)c3ccc4ccccc4c3)CC2)nc1 + CN(C)c1ccc(Nc2c3ccc(NC(=O)CCN4CCCC4)cc3nc3cc(NC(=O)CCN4CCCC4)ccc23)cc1
6. C=CC(=O)N1CCN(c2nc(=O)n(-c3c(C)ccnc3C(C)C)c3nc(-c4c(O)cccc4F)c(F)cc23)C(C)C1 (stereo not drawn) + Cc1[nH]c2ccc(F)cc2c1-c1nc2c3cccnc3c3ncccc3c2[nH]1

A:
19.1
111
21.4
31.3
101
90.1

###

# Test system: 817829-284-R-J1-PDC complex spheroids, viability
# assay text: Anticancer human tumor 817829-284-R-J1-PDC cell line growth inhibition [GQUAD]; active means viability on the fitted dose curve at most 10% of control; inactive means the rest;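 further: spheroids exposed to agents for 7 days before readout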
# experimental parameters: second compound 0.0316 µM; first compound 10 µM
The categories you may choose from are active, inactive

Previously resolved entries follow.
| compound | assigned category |
| --- | --- |
| COc1cc(C2c3cc4c(cc3C(OC3OC5COC(C)OC5C(O)C3O)C3COC(=O)C23)OCO4)cc(OC)c1O (stereo unspecified) + Cc1[nH]c2ccc(F)cc2c1-c1nc2c3cccnc3c3ncccc3c2[nH]1 | inactive |
| COc1cc(C2c3cc4c(cc3C(OC3OC5COC(C)OC5C(O)C3O)C3COC(=O)C23)OCO4)cc(OC)c1O (stereo unspecified) + CN(C)c1ccc(Nc2c3ccc(NC(=O)CCN4CCCC4)cc3nc3cc(NC(=O)CCN4CCCC4)ccc23)cc1 | inactive |
| CC(=O)O[C@H]1C(=O)[C@@]2(C)[C@H]([C@H](OC(=O)c3ccccc3)[C@]3(O)C[C@H](OC(=O)[C@H](O)[C@@H](NC(=O)c4ccccc4)c4ccccc4)C(C)=C1C3(C)C)[C@]1(OC(C)=O)CO[C@@H]1C[C@@H]2O + Cc1[nH]c2ccc(F)cc2c1-c1nc2c3cccnc3c3ncccc3c2[nH]1 | active |
| C=CCn1c(=O)c2cnc(Nc3ccc(N4CCN(C)CC4)cc3)nc2n1-c1cccc(C(C)(C)O)n1 + CN(C)c1ccc(Nc2c3ccc(NC(=O)CCN4CCCC4)cc3nc3cc(NC(=O)CCN4CCCC4)ccc23)cc1 | active |
| COc1ccc([C@@H](O)c2cc(-c3ncnc4cc(N5CCOCC5)ccc34)c(F)cc2Cl)nn1 + Cc1[nH]c2ccc(F)cc2c1-c1nc2c3cccnc3c3ncccc3c2[nH]1 | inactive |

Q: Per the records of this test, what outcome belongs to COc1cccc2c1C(=O)c1c(O)c3c(c(O)c1C2=O)CC(O)(C(=O)CO)CC3OC1CC(N)C(O)C(C)O1 (stereo unspecified) + Cc1cnc(CNC(=O)c2c(=O)c3ccc(N4CCCN(C)CC4)nc3n3c2sc2ccccc23)cn1 ?
A: active

###

# Tested on: 817829-284-R-J1-PDC complex spheroids, viability
# assay text: Anticancer human tumor 817829-284-R-J1-PDC cell line growth inhibition [GQUAD];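 further: spheroids exposed to agents for 7 days before readout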
# experimental parameters: curve of first compound; second compound 1 µM
recorded endpoint: IC50

| compound | measured value |
| --- | --- |
| C=CC(=O)N1CCN(c2nc(=O)n(-c3c(C)ccnc3C(C)C)c3nc(-c4c(O)cccc4F)c(F)cc23)C(C)C1 (stereo not drawn) + Cc1cnc(CNC(=O)c2c(=O)c3ccc(N4CCCN(C)CC4)nc3n3c2sc2ccccc23)cn1 | < 31.6 nM |
| COc1ccc([C@@H](O)c2cc(-c3ncnc4cc(N5CCOCC5)ccc34)c(F)cc2Cl)nn1 + Cc1[nH]c2ccc(F)cc2c1-c1nc2c3cccnc3c3ncccc3c2[nH]1 | 9780 nM |
| COc1cc(C2c3cc4c(cc3C(OC3OC5COC(C)OC5C(O)C3O)C3COC(=O)C23)OCO4)cc(OC)c1O (stereo not drawn) + CN(C)c1ccc(Nc2c3ccc(NC(=O)CCN4CCCC4)cc3nc3cc(NC(=O)CCN4CCCC4)ccc23)cc1 | 229 nM |
| C=CC(=O)N1CCN(c2nc(=O)n(-c3c(C)ccnc3C(C)C)c3nc(-c4c(O)cccc4F)c(F)cc23)C(C)C1 (stereo not drawn) + Cc1[nH]c2ccc(F)cc2c1-c1nc2c3cccnc3c3ncccc3c2[nH]1 | > 10000 nM |
| CC(=O)O[C@H]1C(=O)[C@@]2(C)[C@H]([C@H](OC(=O)c3ccccc3)[C@]3(O)C[C@H](OC(=O)[C@H](O)[C@@H](NC(=O)c4ccccc4)c4ccccc4)C(C)=C1C3(C)C)[C@]1(OC(C)=O)CO[C@@H]1C[C@@H]2O + CN(C)c1ccc(Nc2c3ccc(NC(=O)CCN4CCCC4)cc3nc3cc(NC(=O)CCN4CCCC4)ccc23)cc1 | < 31.6 nM |

Report IC50 for every entry below.
1. CC1COCCN1c1cc(C2(S(C)(=N)=O)CC2)nc(-c2ccnc3[nH]ccc23)n1 (stereo not drawn) + CN(C)c1ccc(Nc2c3ccc(NC(=O)CCN4CCCC4)cc3nc3cc(NC(=O)CCN4CCCC4)ccc23)cc1
2. Nc1ccn(C2OC(CO)C(O)C2(F)F)c(=O)n1 (stereo not drawn) + Cc1cnc(CNC(=O)c2c(=O)c3ccc(N4CCCN(C)CC4)nc3n3c2sc2ccccc23)cn1

A:
["566 nM", "< 31.6 nM"]

Report IC50 for every entry below.
1. CC1COCCN1c1cc(-c2ccnn2C)c2ccnc(-c3ccn[nH]3)c2n1 (stereo not drawn) + Cc1[nH]c2ccc(F)cc2c1-c1nc2c3cccnc3c3ncccc3c2[nH]1
2. Cc1[nH]c2ccccc2c1CCNCc1ccc(/C=C/C(=O)NO)cc1 + Cc1[nH]c2ccc(F)cc2c1-c1nc2c3cccnc3c3ncccc3c2[nH]1
3. Cn1ncnc1[C@H]1c2n[nH]c(=O)c3cc(F)cc(c23)N[C@@H]1c1ccc(F)cc1 + CN(C)c1ccc(Nc2c3ccc(NC(=O)CCN4CCCC4)cc3nc3cc(NC(=O)CCN4CCCC4)ccc23)cc1
4. COc1cc(C2c3cc4c(cc3C(OC3OC5COC(C)OC5C(O)C3O)C3COC(=O)C23)OCO4)cc(OC)c1O (stereo not drawn) + Cc1cnc(CNC(=O)c2c(=O)c3ccc(N4CCCN(C)CC4)nc3n3c2sc2ccccc23)cn1
5. COc1ccc([C@@H](O)c2cc(-c3ncnc4cc(N5CCOCC5)ccc34)c(F)cc2Cl)nn1 + Cc1cnc(CNC(=O)c2c(=O)c3ccc(N4CCCN(C)CC4)nc3n3c2sc2ccccc23)cn1
6. Cc1cccc(N(C)C(=O)C2C(O)CCN2c2nc(C)cc(C(F)(F)F)c2C#N)c1 (stereo not drawn) + CN(C)c1ccc(Nc2c3ccc(NC(=O)CCN4CCCC4)cc3nc3cc(NC(=O)CCN4CCCC4)ccc23)cc1

A:
1: < 31.6 nM; 2: 51 nM; 3: > 316 nM; 4: < 31.6 nM; 5: < 31.6 nM; 6: > 10000 nM

meta.source: PubChem BioAssay AID2060503
